OD reference
target: T1, CTLA4-Fc fusion protein (human, biotinylated where used as CTLA4-Fc-Biotin (Examples 5.1-5.3)); assay: competitive ELISA: CD80-Fc-Biotin signal on coated CTLA4-Fc with 500 ng VHH/well; competitor CD80-Fc-Biotin
T1 construct: expressed in HEK293 cells; also called human CTLA4-Fc protein; CTLA4-Fc antigen protein

Binder	Unit of measurement	OD
CTLA4 heavy chain single domain antibody No. 145 (VHH, Camel VHH expressed in E. coli (PET32b), nickel-purified) VHH: QVQLQESGGGSVQAGGSLRLSCAASGYTYSSYSMGWFRQAAGKEREGVAAIDSDGSTSYADSVKGRFTISQDNAKNTLYLQMNSLEPEDTAMYYCAATAGWYAARHALSPLFFGYWGQGTQVTVSS	OD405	0.597
CTLA4 heavy chain single domain antibody No. 165 (VHH, Camel VHH expressed in E. coli (PET32b), nickel-purified) VHH: QVQLQESGGGSVQTGGSLRLSCVVSGHSYSRKCMGWFRQAPGKEREEVATFYTGDGRTYYADSVKGRFTISQDNAKNTLYLQMNSLKPEDTGMYFCAADRRVNCDLLQSTFYNYRGQGTQVTVSS	OD405	1.84
CTLA4 heavy chain single domain antibody No. C29 (VHH, Camel VHH expressed in E. coli (PET32b), nickel-purified) VHH: QVQLQESGGGSVQAGGSLRLSCAVSGYTYSGYCMGWFRQAPGKEREGVAAISRGDGSPGYADSVKGRFTISQDNAKNTLYLQMNSLKPEDTAMYYCAADVIPTETCSYGSWSGPNGYWGQGTQVTVSS	OD405	2.43
CTLA4 heavy chain single domain antibody No. 116 (VHH, Camel VHH expressed in E. coli (PET32b), nickel-purified) VHH: QVQLQESGGGLVQPGGSLRLSCEASGFTFSSYTMTWLRQAPGKGLEWVSTINSGGSTSYADSVKGRFAISRDNAKNTLYLQLNSLEIEDTGMYYCQGGLTRGQGTQVTVSS	OD405	2.58
CTLA4 heavy chain single domain antibody No. J42 (VHH, Camel VHH expressed in E. coli (PET32b), nickel-purified) VHH: QVQLQESGGGSVQAGGSLRLSCAASGYTYSSYNSNCMGWFRQAPGKEREGVAAIDSDGSTSYADSVKGRFTISKDNAKNTLYLQMNSLKPEDTAMYYCAASPRTCEVFSLGGSWHLFGYWGQGTQVTVSS	OD405	0.94
CTLA4 heavy chain single domain antibody No. J37 (VHH, Camel VHH expressed in E. coli (PET32b), nickel-purified) VHH: QVQLQESGGGSVQAGGTLRLSCAVSGVTYSPHCMGWFRQAPGKEREGVAAIYNGGGSTAYADSVKGRFTISQDNAKNTVYLQMNSLKPEDTAMYYCGAGSPRFCASATMTGGHHLFGYWGQGTQVTVSS	OD405	1.06
CTLA4 heavy chain single domain antibody No. J39 (VHH, Camel VHH expressed in E. coli (PET32b), nickel-purified) VHH: QVQLQESGGGSVQAGGSLRLSCAPSRYSGALMGWFRQAPGKEREGVAVISRSGLTTYYADSVKGRFTISQDTAKNTIYLQMNSMKPEDTAMYYCVAAPEARAWSSRDPTGYNYWGQGTQVTVSS	OD405	2.13
CTLA4 heavy chain single domain antibody No. 138 (VHH, Camel VHH expressed in E. coli (PET32b), nickel-purified) VHH: QVQLQESGGGSVQAGGSLTLSCAASGYANSNTCMGWFRQAPGKERERVAAISGVGTGTYYADSVKGRFTISRDNGKNTLFLQMNSLKPEDTAMYYCAAAPEGRAWCSRDPSGYNYWGQGTQVTVSS	OD405	1.92
